# system.under.test: Acetylcholinesterase (Electrophorus electricus, Type VI-S) (Electrophorus electricus)
# Construct: purchased Sigma-Aldrich
# Sequence (O42275 24-633): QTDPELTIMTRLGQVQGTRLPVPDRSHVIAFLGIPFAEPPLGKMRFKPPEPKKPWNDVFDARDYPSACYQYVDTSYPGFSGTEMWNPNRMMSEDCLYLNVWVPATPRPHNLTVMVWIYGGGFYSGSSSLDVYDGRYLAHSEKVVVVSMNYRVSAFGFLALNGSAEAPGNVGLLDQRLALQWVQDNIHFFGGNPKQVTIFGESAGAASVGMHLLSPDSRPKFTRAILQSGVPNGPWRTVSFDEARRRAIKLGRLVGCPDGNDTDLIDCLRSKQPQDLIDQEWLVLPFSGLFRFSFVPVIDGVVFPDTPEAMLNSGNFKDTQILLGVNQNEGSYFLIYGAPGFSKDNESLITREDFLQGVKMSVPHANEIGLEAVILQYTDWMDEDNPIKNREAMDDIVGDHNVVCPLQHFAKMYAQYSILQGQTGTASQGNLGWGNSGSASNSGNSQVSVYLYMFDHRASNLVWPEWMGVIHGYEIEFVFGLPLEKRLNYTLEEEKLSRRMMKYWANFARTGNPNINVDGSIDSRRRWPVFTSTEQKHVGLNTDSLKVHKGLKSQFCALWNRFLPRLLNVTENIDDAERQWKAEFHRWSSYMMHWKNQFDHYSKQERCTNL
# protocol.details: biochemical
# condition: Ki
endpoint: pKi
As a rule, pKi stands for the negative log10 of the concentration, concentration in M.

The reported value for C=CCc1cc(OC)c2c(c1OC)OCO2 in terms of pKi is 2.76

For C=C(C)[C@H]1CC=C(C)C(=O)C1 the compound record lists pKi as 2.74

The reported numbers originate from paper PMC11241255.
